B1: FEM1A (parent)
chain: NIVEYLIQEQPGQEQVAGGEAQPG

Variants of: B1
assay: protein stability index of a GFP-peptide fusion (GPS, HEK-293T) (PSI 1-6); higher = more stable;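 further: lentivirally expressed fusions sorted by FACS into six bins by GFP to DsRed ratio, PSI derived from sequencing read proportions per bin multiplied by bin number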
experimental_setup: c terminus: a fixed tail appended
Label met when protein stability index is at or above 4; otherwise label not met.

{"columns": ["mutation_list", "group_label"],
 "data": [
  ["I7D", "met"],
  ["I2N", "met"],
  ["Q8Y", "not met"],
  ["E9G", "not met"],
  ["E14T", "met"],
  ["P23D", "met"]
]}

Please tell me: is the variant A21V at or over 4 in terms of protein stability index?
met

For this variant, is measured protein stability index 4 or higher? P11N
not met

Is the recorded value of protein stability index equal to or greater than 4 for this variant? I7L
not met

Threshold query (protein stability index >= 4) on G18F
not met

Check if protein stability index >= 4 (inclusive). Item: Y5P
met

State whether the measured protein stability index reaches 4, counting equality as reaching it, for E20C
not met

Kindly determine if protein stability index recorded for G19F is above or exactly 4.
not met

Hi team, for Q15R , is the recorded protein stability index at or above 4?
not met

Can V3Y be said to have protein stability index at or above 4?
met

# credit: the supplement of paper PMC10567573
